Recorded values, source patent US20240239811A1.

System: HTT mRNA
Assay: Splicing assay (RT-qPCR) monitoring HTT splice variants, canonical (CJ) and alternative (AJ) junction
Assay type: cell-based
Settings: increase in AJ mRNA, 50% response, A673 or K562 cell line, 24 hours
Protocol: Compounds described herein were used to modulate RNA transcript abundance in cells. The expression of a target mRNA was measured by detecting the formation of an exon-exon junction in the canonical transcript (CJ). A compound mediated exon-inclusion event was detected by observing an increase in formation of a new junction with an alternative exon (AJ). […] After treatment, the levels of the HTT mRNA targets were determined from each sample of cell lysate by cDNA synthesis followed by qPCR. […]
Counter-ions that a name gives are not always drawn.
Overview of recorded AC50 for various compounds

Reference set, count: 5
Cn1cc2cc(-n3cc4cc(C5CCNCC5)sc4n3)cc(F)c2n1 ... 100 to 1000 nM
C[C@@H]1C[C@H](c2cc3sc(-c4cc(F)c5nn(C)cc5c4)nc3s2)CCN1 ... < 100 nM
Cn1cc2cc(-c3nc4sc(N5CCNC(C)(C)C5)cc4s3)cc(F)c2n1 ... 100 to 1000 nM
Cc1nc2c(F)cc(-n3cc4cc(C5CCNCC5)sc4n3)cc2o1 ... 100 to 1000 nM
Cn1cc2cc(-n3cc4sc(C5CCNCC5)cc4n3)c(O)cc2n1 ... 1000 to 10000 nM

-- ask Can you share its AC50? I mean this compound: Cc1cn2nc(-c3nc4sc(C5CCNC5)cc4s3)cc(C)c2n1 (centres unmarked)
-- reply 100 to 1000 nM

-- ask Can you share its AC50? I mean this compound: Cc1cn2nc(-n3cc4sc(C5CCNCC5)cc4n3)nc2c(C)n1
-- reply 1000 to 10000 nM

-- ask Can you share its AC50? I mean this compound: Cc1cc(-c2nc3sc(C4CCNCC4)cc3s2)cc2cn(C)nc12
-- reply < 100 nM

-- ask Can you share its AC50? I mean this compound: Cc1nc2c(F)cc(-n3cc4sc(C5CCNCC5)cc4n3)cc2o1
-- reply 100 to 1000 nM

-- ask Can you share its AC50? I mean this compound: Cc1cn2cc(-n3cc4sc(C5CCNCC5)cc4n3)nc2c(C)n1
-- reply 1000 to 10000 nM

-- ask Can you share its AC50? I mean this compound: CC1CN(c2cc3sc(-c4cc(F)c5nn(C)cc5c4)nc3s2)CCN1 (centres unmarked)
-- reply 100 to 1000 nM

-- ask Can you share its AC50? I mean this compound: COc1c(-c2cc3cn(C4CCNCC4)nc3s2)nn2cc(C)nc(C)c12
-- reply > 10000 nM

-- ask Can you share its AC50? I mean this compound: CN1CC2(C1)CN(c1cc3sc(-c4cc(F)c5nn(C)cc5c4)nc3s1)C2
-- reply 100 to 1000 nM

-- ask Can you share its AC50? I mean this compound: Cn1cc2cc(-c3cc4cn([C@@H]5CCNC5)nc4s3)cc(F)c2n1 [Compound 160, hydrochloride]
-- reply 1000 to 10000 nM
